molecular target: EGFR (form in the assay not stated) (human, UniProt P00533 25-645, limits assumed); assay: ELISA, NEM conjugate 500 nM
Could you please report measured binding ratio vs parent P54AR4-83v2 for the items listed next?
Record the value in ratio, omitting the unit from your answer.

Qu. For P54AR4-83v2 E29C, NEM conjugate (designed binder, NEM on Cys 29, His-tagged) LPAPKNLVVSEVTEDSARLSWDDPWAFYCSFLIQYQESEKVGEAIVLTVPGSERSYDLTGLKPGTEYTVSIYGVHNVYKDTNMRGLPLSAIFTT , what is its reported binding ratio vs parent P54AR4-83v2?
Ans. 0.93

Qu. What about P54AR4-83v2 S16C, NEM conjugate (designed binder, NEM on Cys 16, His-tagged) LPAPKNLVVSEVTEDCARLSWDDPWAFYESFLIQYQESEKVGEAIVLTVPGSERSYDLTGLKPGTEYTVSIYGVHNVYKDTNMRGLPLSAIFTT ?
Ans. 0.63

Qu. What about P54AR4-83v2 G73C, NEM conjugate (designed binder, NEM on Cys 73, His-tagged) LPAPKNLVVSEVTEDSARLSWDDPWAFYESFLIQYQESEKVGEAIVLTVPGSERSYDLTGLKPGTEYTVSIYCVHNVYKDTNMRGLPLSAIFTT ?
Ans. 0.21

Qu. What about P54AR4-83v2 V41C, NEM conjugate (designed binder, NEM on Cys 41, His-tagged) LPAPKNLVVSEVTEDSARLSWDDPWAFYESFLIQYQESEKCGEAIVLTVPGSERSYDLTGLKPGTEYTVSIYGVHNVYKDTNMRGLPLSAIFTT ?
Ans. 0.95
